Ratio IC50 values, listed per item
- assay-remarks: Selectivity ratio of IC50 for horse serum BChE to IC50 for electric eel AChE

Look over these answered cases.
>  <molecule>
S=C1NC2=C(CN(CCN3CCOCC3)C/C2=C\c2ccc(Cl)cc2Cl)C(c2ccc(Cl)cc2Cl)N1 (configuration not stated)

>  <Ratio IC50>
0.68

$$$$
>  <molecule>
S=C1NC2=C(CN(CCN3CCOCC3)C/C2=C\c2ccccc2)C(c2ccccc2)N1 (configuration not stated)

>  <Ratio IC50>
0.72

$$$$

Consider the molecule shown here: COc1ccccc1/C=C1\CN(CCN2CCOCC2)CC2=C1NC(=S)NC2c1ccccc1OC (configuration not stated) What is its recorded Ratio IC50? 0.71

Value lookup for Ratio IC50; key = CCN1CC2=C(NC(=S)NC2c2ccccc2F)/C(=C/c2ccccc2F)C1 (configuration not stated) 0.81

# input molecule: CCN1CC2=C(NC(=S)NC2c2ccc(F)cc2)/C(=C/c2ccc(F)cc2)C1 (configuration not stated) ; wanted: its Ratio IC50 2.76

# get_value(readout='Ratio IC50', item= CCN1CC2=C(NC(=S)NC2c2ccccc2Cl)/C(=C/c2ccccc2Cl)C1 (configuration not stated) ) 0.43

Give the measured Ratio IC50 of S=C1NC2=C(CN(CCN3CCOCC3)C/C2=C\c2ccc(Cl)cc2)C(c2ccc(Cl)cc2)N1 (configuration not stated) . 0.78
